System: C. difficile NR-13432 (isolate 6)
Assay: Clostridium difficile inhibition analysis
Assay type: cell-based
Conditions: Table 7, C. difficile NR-13432 (isolate 6)
Exercise: for every item that follows, state its recorded Antibacterial activity.
Numbers only.

CN[C@H](CC(C)C)C(=O)N[C@H]1C(=O)N[C@@H](CC(N)=O)C(=O)N[C@H]2C(=O)N[C@H]3C(=O)N[C@H](C(=O)N[C@H](C(=O)O)c4cc(O)cc(O)c4-c4cc3ccc4O)[C@H](O)c3ccc(c(Cl)c3)Oc3cc2cc(c3O[C@@H]2O[C@H](CO)[C@@H](O)[C@H](O)[C@H]2O[C@H]2C[C@](C)(N)[C@H](O)[C@H](C)O2)Oc2ccc(cc2Cl)[C@H]1O [Vancomycin, reference compound]; 0.25
C[C@@H]1C[C@H](C)CN(S(=O)(=O)c2csc(C(=O)Nc3nnc(-c4ccc(C(F)(F)F)cc4)o3)c2)C1 [HSGN-193]; 0.125
CC1CC(C)CN(S(=O)(=O)c2cncc(C(=O)Nc3nnc(-c4ccc(C(F)(F)F)cc4)o3)c2)C1 (stereo not shown) [HSGN 216]; 0.125

Ask: Antibacterial activity for C[C@@H]1C[C@H](C)CN(S(=O)(=O)c2ccc(C(=O)Nc3nnc(-c4ccc(C(F)(F)F)cc4)o3)cc2)C1 [HSGN-94] ?
Result: 0.06

Hey, just so you know, these numbers are from patent US11731964B2.
